Documented binding signal across a set of sequences
- experimental_target: ELK1 (Homo sapiens, UniProt P19419 1-428)
- Sequence: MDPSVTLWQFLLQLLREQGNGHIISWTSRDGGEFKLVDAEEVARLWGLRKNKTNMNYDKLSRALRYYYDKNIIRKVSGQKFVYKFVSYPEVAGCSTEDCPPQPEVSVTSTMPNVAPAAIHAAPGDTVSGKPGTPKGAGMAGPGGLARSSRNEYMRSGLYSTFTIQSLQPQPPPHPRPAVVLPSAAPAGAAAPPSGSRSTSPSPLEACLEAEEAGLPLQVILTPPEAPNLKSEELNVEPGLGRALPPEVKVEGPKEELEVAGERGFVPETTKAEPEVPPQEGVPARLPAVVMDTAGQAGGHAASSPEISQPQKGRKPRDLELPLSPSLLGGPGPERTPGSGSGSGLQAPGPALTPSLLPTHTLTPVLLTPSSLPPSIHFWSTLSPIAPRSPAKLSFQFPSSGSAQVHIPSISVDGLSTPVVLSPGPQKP
- test: custom PBM; custom protein-binding microarray; buffer, salt, pH and temperature not stated; high values mean tight binding
- assay_setup: dsDNA, one strand shown
The full ranking holds about 1,300 sequences; the median of “log fluorescence intensity” is about 8.9, and the highest 2% start at about 13. The entries come from a sample that favours the highest values as a whole.

Observe how each entry below is paired with its result.
GTGTATAGGATCCCATCCAACACACCTGTTAAAATGGTCTTGATTCGCTTGACGCTGCTG = 8.91 log fluorescence intensity
TAAAGGGAAGACGGATGTGGTAGTTCCGGGTATTAAGTCTTGATTCGCTTGACGCTGCTG = 12.6 log fluorescence intensity
GATTAATTTCCGCCCTTATTCGCACGTGCCATAACAGTCTTGATTCGCTTGACGCTGCTG = 12.5 log fluorescence intensity

binding signal reported for this sequence `GGAAAAAGGCCCAGGGTAACTCCGGAAGTGGGCTTAGTCTTGATTCGCTTGACGCTGCTG` : 10.4 log fluorescence intensity

// binding signal lookup, sequence = `CGGAAGTGTCGTAAACGTCGGATATCCGGTTCTTGTGTCTTGATTCGCTTGACGCTGCTG` , result: 12.6 log fluorescence intensity

// recorded binding signal for `TAAAGGGAAGGCGGTTGTGGTAGTTCCGGGTATTAAGTCTTGATTCGCTTGACGCTGCTG` : 11.5 log fluorescence intensity

Form field binding signal, entry `CGGAAGTGTCGTAAACGTCGGATATCCGGTTCTTTTGTCTTGATTCGCTTGACGCTGCTG` : 12.5 log fluorescence intensity

Sample `CTGCATAGGACTTCTTCCCTGAAGCAATTGATAACCGTCTTGATTCGCTTGACGCTGCTG` ; binding signal observed: 8.94 log fluorescence intensity

Kindly note the recorded binding signal for `TACTGACTAATATATGCGAATGCACATGAATAGACCGTCTTGATTCGCTTGACGCTGCTG` , which is 8.92 log fluorescence intensity

// `TACTGACTTCTATATGCGAATGCACATGAATAGACCGTCTTGATTCGCTTGACGCTGCTG` : binding signal value = 8.96 log fluorescence intensity

Data point: `GGAAAAAGGCCCAGGGTAACACCGCAAGTGGGCTTAGTCTTGATTCGCTTGACGCTGCTG` ; binding signal = 8.91 log fluorescence intensity

Please fill in: binding signal reported for `GTGTATAGGATCCCATCCAACACACGTGATAAAATGGTCTTGATTCGCTTGACGCTGCTG` = 8.94 log fluorescence intensity

Query `CACAATTTTTACAGTAATGTAGTACGCGTAACTCCTGTCTTGATTCGCTTGACGCTGCTG` yields binding signal of 9.01 log fluorescence intensity

Field binding signal (entry `CGGAAGTGTCGTAAACGTCGGATATCCGCTTCTTCTGTCTTGATTCGCTTGACGCTGCTG` ) reads 11.5 log fluorescence intensity

Reported binding signal for `CAGCATAGTACTTCTTCCCTGAAGCAATTGATAACCGTCTTGATTCGCTTGACGCTGCTG` was 8.98 log fluorescence intensity

Notebook: `TCCGGCTATCAGCTCCACCCACTTCAGGCCTTGTAGGTCTTGATTCGCTTGACGCTGCTG` , binding signal read as 9.1 log fluorescence intensity

`GTGCATAGGATCCCATCCAACACACGTGTTAAAATGGTCTTGATTCGCTTGACGCTGCTG` yielded binding signal of 9 log fluorescence intensity

Notebook: `GCTGCCGCGGTGCATACCCCACCGGATGTGACCCCGGTCTTGATTCGCTTGACGCTGCTG` , binding signal read as 10.5 log fluorescence intensity

// field: binding signal; key: `TAAAGGGAAGACGGTGGTGGTAGTTCCGGGTATTAAGTCTTGATTCGCTTGACGCTGCTG` ; value = 11.1 log fluorescence intensity

The sequence listed as `TAAAGGGACGACGGTTGTGGTAGTTCCGGGTATTAAGTCTTGATTCGCTTGACGCTGCTG` has a reported binding signal of 11.3 log fluorescence intensity
